Hey, just so you know, these numbers are from paper PMC4126877.

- system.name: recombinant human TDP2 (Homo sapiens)
- Sequence (O95551 whole entry): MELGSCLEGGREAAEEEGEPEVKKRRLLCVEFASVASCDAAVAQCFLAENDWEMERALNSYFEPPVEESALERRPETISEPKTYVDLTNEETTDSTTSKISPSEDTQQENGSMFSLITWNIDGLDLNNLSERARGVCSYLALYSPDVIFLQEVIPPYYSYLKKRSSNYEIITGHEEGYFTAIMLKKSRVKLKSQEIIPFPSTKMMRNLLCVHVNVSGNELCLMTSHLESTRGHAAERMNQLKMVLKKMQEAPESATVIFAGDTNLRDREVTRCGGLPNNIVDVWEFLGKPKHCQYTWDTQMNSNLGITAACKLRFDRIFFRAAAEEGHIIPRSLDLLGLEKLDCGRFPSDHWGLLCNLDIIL
- procedure.summary: Recombinant TDP2 counter-screening assay
- Assay type: biochemical
- experimental.conditions: read-out: IC50 TDP2 REC; recombinant TDP2
measured.property: IC50

Ask | What IC50 value was documented for this molecule, Cc1ccc(Nc2nn3c(=O)c4ccccc4nc3s2)cc1C [NCGC00183674] ?
Reply | > 111 µM

* * *

- system.name: recombinant TDP1 (Homo sapiens, UniProt Q9NUW8)
- Sequence (Q9NUW8 whole entry): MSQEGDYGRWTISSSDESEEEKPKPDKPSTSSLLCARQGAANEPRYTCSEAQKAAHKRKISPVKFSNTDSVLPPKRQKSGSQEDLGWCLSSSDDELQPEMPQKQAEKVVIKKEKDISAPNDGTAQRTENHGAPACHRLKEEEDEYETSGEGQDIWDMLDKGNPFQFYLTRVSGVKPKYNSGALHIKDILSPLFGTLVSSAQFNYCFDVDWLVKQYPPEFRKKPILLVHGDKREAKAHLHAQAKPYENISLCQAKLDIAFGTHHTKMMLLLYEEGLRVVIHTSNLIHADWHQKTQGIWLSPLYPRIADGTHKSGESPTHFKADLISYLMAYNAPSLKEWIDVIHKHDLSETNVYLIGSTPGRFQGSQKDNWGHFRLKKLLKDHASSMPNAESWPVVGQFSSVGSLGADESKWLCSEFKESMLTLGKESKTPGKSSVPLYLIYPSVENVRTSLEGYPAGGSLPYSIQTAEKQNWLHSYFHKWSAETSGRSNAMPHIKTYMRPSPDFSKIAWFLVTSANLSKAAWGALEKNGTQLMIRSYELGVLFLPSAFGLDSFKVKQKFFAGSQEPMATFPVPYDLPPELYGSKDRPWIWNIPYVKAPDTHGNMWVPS
- procedure.summary: Recombinant TDP1 gel-based assay
- Type: biochemical
- experimental.conditions: read-out: IC50 TDP1 REC; recombinant TDP1, WCE buffer
measured.property: IC50 (µM)
Write the number in µM without appending the unit.

Cc1ccc(Nc2nn3c(=O)c4ccccc4nc3s2)cc1C ... 12.1

Moving on to another molecule below.
Ask | Entry O=c1c2ccccc2nc2sc(Nc3ccc4c(c3)CCC4)nn12 , system recombinant TDP1 (Homo sapiens, UniProt Q9NUW8): what IC50 was measured?
Reply | 81
